System: Musca domestica
PROTOCOL: Pesticidal test against Musca domestica (petri dish dry film)
Assay type: in vivo
TEST_CONDITIONS: 24 h, concentration 100 ppm, female adults, examined after 1 day, 25° C., read-out: pesticidal rate
pest or weed control at 100 ppm overview
PROPERTY_LABEL: pest or weed control at 100 ppm

| COMPOUND | PROPERTY_LABEL | RESULT |
| --- | --- | --- |
| O=C(Nc1c(Br)cc(C(F)(C(F)(F)F)C(F)(F)C(F)(F)F)cc1C(F)(F)F)c1cccc(NC(=O)c2c(F)cccc2F)c1 (stereo not drawn) | pest or weed control at 100 ppm | ≥ 70% |
| O=C(Nc1cccc(C(=O)Nc2c(I)cc(C(F)(C(F)(F)F)C(F)(F)F)cc2C(F)(F)F)c1F)c1cccc(F)c1 | pest or weed control at 100 ppm | ≥ 70% |
| N#Cc1ccc(C(=O)Nc2cccc(C(=O)Nc3c(I)cc(C(F)(C(F)(F)F)C(F)(F)C(F)(F)F)cc3C(F)(F)F)c2F)cc1 (stereo not drawn) | pest or weed control at 100 ppm | ≥ 70% |
| CN(C(=O)c1ccc(Cl)nc1)c1cccc(C(=O)Nc2c(I)cc(C(F)(C(F)(F)F)C(F)(F)F)cc2I)c1F | pest or weed control at 100 ppm | ≥ 70% |
| CN(C(=O)c1ccccc1)c1cccc(C(=O)Nc2c(Br)cc(C(F)(C(F)(F)F)C(F)(F)F)cc2Br)c1F | pest or weed control at 100 ppm | ≥ 70% |
| CN(C(=O)c1ccc(F)cc1)c1cccc(C(=O)Nc2c(I)cc(C(F)(C(F)(F)F)C(F)(F)C(F)(F)F)cc2C(F)(F)F)c1F (stereo not drawn) | pest or weed control at 100 ppm | ≥ 70% |
| N#Cc1cccc(C(=O)Nc2cccc(C(=O)Nc3c(I)cc(C(F)(C(F)(F)F)C(F)(F)C(F)(F)F)cc3C(F)(F)F)c2)c1 (stereo not drawn) | pest or weed control at 100 ppm | ≥ 70% |
| O=C(Nc1cccc(C(=O)Nc2c(I)cc(C(F)(C(F)(F)F)C(F)(F)F)cc2C(F)(F)F)c1F)c1ccccc1Cl | pest or weed control at 100 ppm | ≥ 70% |
| O=C(Nc1cccc(C(=O)Nc2c(I)cc(C(F)(C(F)(F)F)C(F)(F)C(F)(F)F)cc2C(F)(F)F)c1F)c1ccccc1F (stereo not drawn) | pest or weed control at 100 ppm | ≥ 70% |

---

Tested on: Musca domestica
PROTOCOL: Pesticidal test against Musca domestica (petri dish dry film)
Type: in vivo
TEST_CONDITIONS: 24 h, concentration 100 ppm, female adults, examined after 1 day, 25° C., read-out: pesticidal rate
PROPERTY_LABEL: pest or weed control at 100 ppm

| MOLECULE | RESULT |
| --- | --- |
| CN(C(=O)c1cccc(F)c1)c1cccc(C(=O)Nc2c(I)cc(C(F)(C(F)(F)F)C(F)(F)F)cc2C(F)(F)F)c1F | ≥ 70% |
| CN(C(=O)c1ccc(C#N)cc1)c1cccc(C(=O)Nc2c(I)cc(C(F)(C(F)(F)F)C(F)(F)C(F)(F)F)cc2C(F)(F)F)c1F (stereo not drawn) | ≥ 70% |
| O=C(Nc1cccc(C(=O)Nc2c(Br)cc(C(F)(C(F)(F)F)C(F)(F)C(F)(F)F)cc2C(F)(F)F)c1)c1ccc(Cl)nc1 (stereo not drawn) | ≥ 70% |

Reference source for all entries: patent US8686044B2
